Please provide measured GI50 for the entries that follow.
tested on: NCI-H522; experiment: NCI tumour cell line growth inhibition, 48 h
Active and inactive are the calls of the source. No stated cut-off is given here; in the data, active = GI50 up to about 1.1 µM and inactive = higher.

Cc1ccc(S(=O)(=O)N(/N=C(\N)Oc2ccc(Cl)cc2)C(=N)Oc2ccc(Cl)cc2)cc1    > 100 µM (inactive)
COc1ccc(NC(=O)CSc2nnc(-c3ccc(/N=C\c4ccc(Cl)cc4)cc3)o2)cc1    26.7 µM (inactive)
O[C@@]12Cc3c([nH]c4ccccc34)[C@@H]3Oc4c(-c5ccccc5)ccc5c4[C@@]31CCN(CC1CC1)[C@@H]2C5    1.77 µM (inactive)
O=c1ccc2nc3cc(Br)ccc3sc-2c1    56.8 µM (inactive)
COC(=O)C(CNC(=O)/C=C/c1ccc(OC(C)=O)c(OC(C)=O)c1)NC(=O)/C=C/c1ccc(OC(C)=O)c(OC(C)=O)c1 (configuration not stated)    32.1 µM (inactive)
O=C1N(c2ccccc2)C(=S)/C(=C/c2ccc(Cl)cc2)N1c1ccc(Cl)cc1    15.9 µM (inactive)
CN(C)c1ccc2c(=O)c3ccccc3oc2n1    > 100 µM (inactive)
CCCCCCNC(=O)c1cc(C#Cc2cc(OC)ccc2OC)ccc1OC    6.15 µM (inactive)

Take each entry in turn and give its GI50.
1. CN(C)CCCNC(CC#N)CCC#N (configuration not stated)
2. CCC/N=C1\S/C(=C/c2ccc(OC)c(OC)c2)C(=O)N1c1ccccc1
3. CC1(C)OC2C(=O)C=C(COCc3ccccc3)C2O1 (configuration not stated)
4. CC(C)(C)CN1[C@@H]2CCCC[C@H]2N(CC(C)(C)C)P1(=O)C(O)/C=C/c1ccccc1 (some centres not stated)

[reply]
["> 10 µM (inactive)", "40.6 µM (inactive)", "16.5 µM (inactive)", "26.7 µM (inactive)"]

Okay, here is my list. What is GI50 for each of these?
1. O=C(O)c1nc2ccccc2nc1NCc1ccc(F)cc1
2. O=C(n1[nH]c(=O)n(-c2ccc([N+](=O)[O-])cc2)c1=O)C(Cl)(Cl)Cl

[reply]
1: 48.9 µM (inactive); 2: > 75 µM (inactive)

Batch: GI50 for all items listed.
1. O=S(=O)(O)C(O)/C=C/c1ccccc1 (configuration not stated)
2. Cc1nc2ccccc2n1Cc1nnc(-c2ccccc2)o1

[reply]
["> 100 µM (inactive)", "> 100 µM (inactive)"]

[ask] // map "O=c1[nH]nc(-c2ccccc2)n1/N=C\c1ccccc1" to recorded GI50 (system: NCI-H522)
[reply] > 100 µM (inactive)

// provenance: ChEMBL document CHEMBL1201862
